B1: SPSB1 (parent)
chain: DMRDPTYRPLKQELQGLDYCKPTR

- Variants of: B1
- protocol.notes: protein stability index of a GFP-peptide fusion (GPS, HEK-293T) (PSI 1-6); higher = more stable;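 note: lentivirally expressed fusions sorted by FACS into six bins by GFP to DsRed ratio, PSI derived from sequencing read proportions per bin multiplied by bin number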
- test.settings: c terminus: a fixed tail appended
value.kind: protein stability index
Give bare numbers.

# count of solved cases: 5
mutant.label: Q12V
protein stability index: 2.59
//
mutant.label: D18C
protein stability index: 3.08
//
mutant.label: K11H
protein stability index: 3.32
//
mutant.label: D1T
protein stability index: 3.62
//
mutant.label: Q15A
protein stability index: 3.32

For each entry beneath this line, provide reported protein stability index.
1. R8L
2. E13I
3. D1K
4. C20P
5. Q15M
6. P9W
7. C20N

1: 3.23; 2: 2.62; 3: 3.06; 4: 3.94; 5: 3.33; 6: 2.99; 7: 4.05
